# ASSAY_NAME: in vivo
# CONDITION_INFO: male, Wistar Han, rat, in vivo; day 49; single IM Example 37A 56 mg/kg; read-out: Mean concentration of Example 37A
PROPERTY_NAME: concentration at 49 day (ng/mL)
Provide the reading as a plain figure in ng/mL.

// Input: C#C[C@]1(COP(=O)(N[C@@H](C)C(=O)OC(CCCCCCCCCC)CCCCCCCCCC)Oc2ccccc2)O[C@@H](n2cnc3c(N)nc(F)nc32)C[C@@H]1O (single isomer, unassigned) [Example 37A] . Output its concentration at 49 day only.
4.89

###

# ASSAY_NAME: EFdA Rat PK Studies (subcutaneous and intramuscular groups), plasma concentration by LC-MS/MS
# Type: in vivo, Wistar Han rats
# CONDITION_INFO: male, Wistar Han, rat, plasma, intramuscular, 20 mg/kg, 48 hr; IM 20 mg/kg; plasma; read-out: Assayed Concentrations of EFdA, Mean
PROPERTY_NAME: concentration at 48 h
Hi, when you answer, please include the unit after the number. Thanks!

// Input: C#C[C@]1(CO)O[C@@H](n2cnc3c(N)nc(F)nc32)C[C@@H]1O . Output its concentration at 48 h only.
2.18 ng/mL
